Provenance of the data: patent US20220204476A1

Tested on: SARS-CoV-2
Assay protocol: SARS-CoV-2 in vitro plaque reduction assay in Vero E6 cells
Type: cell-based
Test conditions: Severe acute respiratory syndrome coronavirus 2, Vero C1008, MOI 0.0001 pfu/cell, plaques counted after 48 h, >5 μM = did not reduce plaque numbers by half at 10 μM, read-out: SARS-CoV-2 Antiviral EC50
pEC50: −log10 of the molar value.
Experimental readout: pEC50

The cases that follow already have their pEC50 on record.
CC(C)C[C@H](NC(=O)C1CCCC1)C(=O)N[C@@H](C[C@@H]1CCCNC1=O)C(=O)COC(=O)c1cccnc1 [Compound 17]	< 5.30
COc1cccc2[nH]c(C(=O)N[C@@H](CC(C)C)C(=O)N[C@@H](C[C@@H]3CCCNC3=O)C(=O)COC(=O)c3c(F)c(F)c(F)c(F)c3F)cc12 [Compound 7]	< 5.30

Now take the following molecule into account.
Challenge: For the molecule shown here, CC(C)(C)C[C@H](NC(=O)OCC1c2ccccc2-c2ccccc21)C(=O)N[C@H](C#N)C[C@@H]1CCCNC1=O [Compound 86] , give the reported pEC50.
Response given: 5.37

---

Target under test: SARS-CoV-2 3CLP (Severe acute respiratory syndrome coronavirus 2)
Assay protocol: SARS-CoV-2 3CLP inhibition, FRET-based cleavage assay
Format: biochemical
Test conditions: 80 nM SARS-CoV-2 3CLP, 100 μM substrate, 37° C., 10 min incubation, pH 7.8; read-out: 3CL Protease IC50
Below is a list of entries, each paired with its recorded IC50 value.
State the answer as a number, implicitly in nM.

COc1cccc2[nH]c(C(=O)N[C@@H](CC(C)C)C(=O)N[C@@H](C[C@@H]3CCCNC3=O)C(=O)COC(=O)C(C)(C)C(F)(F)F)cc12	20
Cc1cc(C)c(C(=O)OCC(=O)[C@H](C[C@@H]2CCCNC2=O)NC(=O)[C@H](CC(C)C)NC(=O)[C@H]2CCCO2)c(C)n1	190
COc1cccc2[nH]c(C(=O)N[C@@H](CC(C)C)C(=O)N[C@@H](C[C@@H]3CCCNC3=O)C(=O)COC(=O)c3c(C(F)(F)F)cc(C)nc3C)cc12	14
CC(C)C[C@H](NC(=O)[C@@H]1C[C@H]1c1ccccc1)C(=O)N[C@H](C#N)C[C@@H]1CCCNC1=O	69
CC(C)C[C@H](NC(=O)c1cc2c(OC(F)(F)F)cccc2[nH]1)C(=O)N[C@H](C#N)C[C@@H]1CCCNC1=O	14

Now take the following compound into account.
Challenge: For the compound shown here, CC(C)C[C@H](NCC1Cc2ccccc2O1)C(=O)N[C@H](C#N)C[C@@H]1CCCNC1=O (single isomer, unassigned) [Compound 96] , give the reported IC50.
Response given: 46000

---

Below is a list of entries, each paired with its recorded CC50 at 24 h value.
Assay protocol: Cytotoxicity, CellTiter-Glo luminescent cell viability assay
Test conditions: human (A549) and green monkey (Vero E6)

The cases that follow already have their CC50 at 24 h on record.
COc1cccc2[nH]c(C(=O)N[C@@H](CC(C)C)C(=O)N[C@@H](C[C@@H]3CCCNC3=O)C(=O)COC(=O)c3c(C(F)(F)F)cc(C)nc3C)cc12	> 200 µM
COc1cccc2[nH]c(C(=O)N[C@@H](CC(C)(C)C)C(=O)N[C@H](C#N)C[C@@H]3CCCNC3=O)cc12	> 200 µM

Now take the following compound into account.
Challenge: For the compound shown here, COc1cccc2[nH]c(C(=O)N[C@@H](CC(C)C)C(=O)N[C@H](C#N)C[C@@H]3CCCNC3=O)cc12 , give the reported CC50 at 24 h.
Response given: > 200 µM
